# Test system: 349418-098-R-PDC complex spheroid viability
# measurement description: Anticancer human tumor 349418-098-R-PDC patient-derived lung adenocarcinoma cell line growth inhibition [RAS]
# protocol conditions: second compound 0.03 µM; first compound 0.1 µM; hits give low values
# Description: RAS pathway inhibitors in Combinations in Complex Spheroids A high-throughput screen of multi-cell type tumor spheroids was designed to identify active combinations of RAS pathway inhibitors and targeted small molecules. Complex spheroids include a stromal component modeled by human endothelial cells (HUVEC) and fibroblasts modeled by human mesenchymal stem cells (MSCs). […] Compounds. […] If the clinical Cmax for an agent had not been determined, the highest concentration tested was 10 microM. […]
observed property: viability, T/C (%)
Give the value in % but do not write % after it.

1. C=CC(=O)Nc1cc(Nc2nccc(-c3cn(C)c4ccccc34)n2)c(OC)cc1N(C)CCN(C)C + CCn1c(-c2cc(N3CCN(C)CC3)cnc2C(C)OC)c2c3cc(ccc31)-c1csc(n1)CC(NC(=O)C1CC1C)C(=O)N1CCCC(N1)C(=O)OCC(C)(C)C2: 102
2. Cc1nc(N2CCC3(CC2)COC(C)C3N)c(CO)nc1Sc1ccnc(N)c1Cl (centres undefined) + CCn1c(-c2cccnc2C(C)OC)c2c3cc(ccc31)N1CCOC(CC(NC(=O)C(C(C)C)N(C)C(=O)C3(F)CCN(C(=O)C#CC(C)(C)N(C)C)CC3)C(=O)N3CCCC(N3)C(=O)OCC(C)(C)C2)C1: 107
3. CCN1CCN(Cc2ccc(Nc3ncc(F)c(-c4cc(F)c5nc(C)n(C(C)C)c5c4)n3)nc2)CC1 + CCn1c(-c2cccnc2C(C)OC)c2c3cc(ccc31)N1CCOC(CC(NC(=O)C(C(C)C)N(C)C(=O)C3(F)CCN(C(=O)C#CC(C)(C)N(C)C)CC3)C(=O)N3CCCC(N3)C(=O)OCC(C)(C)C2)C1: 21.5

Moving on to the next compound.
Query: Indicate its recorded viability, T/C; the compound in question is NC1c2ccccc2OC12CCN(c1cnc3c(N4CCCc5ncccc54)n[nH]c3n1)CC2 (centres undefined) + CCn1c(-c2cccnc2C(C)OC)c2c3cc(ccc31)N1CCOC(CC(NC(=O)C(C(C)C)N(C)C(=O)C3(F)CCN(C(=O)C#CC(C)(C)N(C)C)CC3)C(=O)N3CCCC(N3)C(=O)OCC(C)(C)C2)C1
Reply: 102

###

# Tested on: 349418-098-R-PDC complex spheroid viability
# measurement description: Anticancer human tumor 349418-098-R-PDC cell line growth inhibition [RAS];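 note: spheroids exposed to compound for seven days before viability readout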
# protocol conditions: second compound 0.3 µM; first compound 3.16 µM; hits give low values
observed property: viability, T/C (%)
Give the value in % but do not write % after it.

Query: Indicate its recorded viability, T/C; the molecule in question is CC(Nc1ccc2c(c1)OCCn1cc(N3C(=O)OCC3C(F)F)nc1-2)C(N)=O (centres undefined) + CCn1c(-c2cc(N3CCN(C)CC3)cnc2C(C)OC)c2c3cc(ccc31)-c1csc(n1)CC(NC(=O)C1CC1C)C(=O)N1CCCC(N1)C(=O)OCC(C)(C)C2
Reply: 26.6

###

# Test system: 349418-098-R-PDC complex spheroid viability
# measurement description: Anticancer human tumor 349418-098-R-PDC cell line growth inhibition [RAS];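 note: spheroids exposed to compound for seven days before viability readout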
# protocol conditions: second compound 0.0316 µM; first compound 0.01 µM; hits give low values
observed property: viability, T/C (%)
Give the value in % but do not write % after it.

Solved entries:
1. C=CC(=O)Nc1cc(Nc2nccc(-c3cn(C)c4ccccc34)n2)c(OC)cc1N(C)CCN(C)C + C=CC(=O)N1CCN(c2nc(OCC3CCCN3C)nc3c(F)c(-c4nc(N)cc(C)c4C(F)(F)F)c(Cl)cc23)C(C)C1: 129
2. CC(C)n1nc(-c2ccc3oc(N)nc3c2)c2c(N)ncnc21 + C=CC(=O)N1CCN(c2nc(OCC3CCCN3C)nc3c(F)c(-c4nc(N)cc(C)c4C(F)(F)F)c(Cl)cc23)C(C)C1: 14.1
3. CC(C)n1nc(-c2ccc3oc(N)nc3c2)c2c(N)ncnc21 + C#Cc1c(F)ccc2cc(O)cc(-c3ncc4c(N5CC6CCC(C5)N6)nc(OCC56CCCN5CC(F)C6)nc4c3F)c12: 15.3
4. O=C(c1ccc(F)c(F)c1Nc1ccc(I)cc1F)N1CC(O)([C@@H]2CCCCN2)C1 + C=CC(=O)N1CCN(c2nc(OCC3CCCN3C)nc3c(F)c(-c4nc(N)cc(C)c4C(F)(F)F)c(Cl)cc23)C(C)C1: 32.8
5. C=CC(=O)Nc1cc(Nc2nccc(-c3cn(C)c4ccccc34)n2)c(OC)cc1N(C)CCN(C)C + C#Cc1c(F)ccc2cc(O)cc(-c3ncc4c(N5CC6CCC(C5)N6)nc(OCC56CCCN5CC(F)C6)nc4c3F)c12: 130
6. Nc1ccn(C2OC(CO)C(O)C2(F)F)c(=O)n1 (stereo unspecified) + C#Cc1c(F)ccc2cc(O)cc(-c3ncc4c(N5CC6CCC(C5)N6)nc(OCC56CCCN5CC(F)C6)nc4c3F)c12: 7.34
7. C=CC(=O)N1CCN(c2nc(OCC3CCCN3C)nc3c(F)c(-c4nc(N)cc(C)c4C(F)(F)F)c(Cl)cc23)C(C)C1 (stereo unspecified) + C#Cc1c(F)ccc2cc(O)cc(-c3ncc4c(N5CC6CCC(C5)N6)nc(OCC56CCCN5CC(F)C6)nc4c3F)c12: 105
8. Nc1ccn(C2OC(CO)C(O)C2(F)F)c(=O)n1 (stereo unspecified) + C=CC(=O)N1CCN(c2nc(OCC3CCCN3C)nc3c(F)c(-c4nc(N)cc(C)c4C(F)(F)F)c(Cl)cc23)C(C)C1: 6.92
9. CCN1CCN(Cc2ccc(Nc3ncc(F)c(-c4cc(F)c5nc(C)n(C(C)C)c5c4)n3)nc2)CC1 + C#Cc1c(F)ccc2cc(O)cc(-c3ncc4c(N5CC6CCC(C5)N6)nc(OCC56CCCN5CC(F)C6)nc4c3F)c12: 38.2
10. CCN1CCN(Cc2ccc(Nc3ncc(F)c(-c4cc(F)c5nc(C)n(C(C)C)c5c4)n3)nc2)CC1 + C=CC(=O)N1CCN(c2nc(OCC3CCCN3C)nc3c(F)c(-c4nc(N)cc(C)c4C(F)(F)F)c(Cl)cc23)C(C)C1: 96.2

Moving on to the next molecule.
Query: Indicate its recorded viability, T/C; the molecule in question is O=C(c1ccc(F)c(F)c1Nc1ccc(I)cc1F)N1CC(O)([C@@H]2CCCCN2)C1 + C#Cc1c(F)ccc2cc(O)cc(-c3ncc4c(N5CC6CCC(C5)N6)nc(OCC56CCCN5CC(F)C6)nc4c3F)c12
Reply: 37.5

Data origin, for the record: PubChem BioAssay AID2060904
